Data origin, for the record: patent US6348445B1

Field: Minimal Inhibitory Concentration S. Provide a value for each of the compounds that follow.
# Test system: S.aureus strain ATCC 25923
# Assay Info: Minimal Inhibitory Concentration, microtiter broth dilution
# Type: cell-based
# Condition Info: Mueller Hinton broth, 16-20 hours at 37° C.
Where a SMILES comes first, the peptide text is derived from it. [ ]: non-standard residue; d: D form. The star is where a group is joined. Octanoyl = CCCCCCCC(=O)*; Orn = NCCC[C@H](N)C(=O)O
State just the number; it will be interpreted in µg/mL.

INPUT: // Input: CCCCCCCC(=O)N[C@@H](CCCN)C(=O)N[C@@H](CCCN)C(=O)N[C@@H](CC(C)C)C(=O)N[C@@H](CC(C)C)C(=O)N[C@@H](CCCN)C(=O)N[C@@H](CCCN)C(=O)N[C@@H](CC(C)C)C(=O)N[C@@H](CCCN)C(=O)N[C@@H](CCCN)C(=O)N[C@@H](CC(C)C)C(N)=O [Oct-(SEQ ID NO: 143)-NH2] (Octanoyl-[Orn][Orn]LL[Orn][Orn]L[Orn][Orn]L-NH2) . Output its Minimal Inhibitory Concentration S only.
OUTPUT: 16

INPUT: // Input: CCCCCCCC(=O)N[C@@H](CCCCN)C(=O)N[C@@H](Cc1c[nH]c2ccccc12)C(=O)N[C@@H](CCCCN)C(=O)N[C@@H](CC(C)C)C(=O)N[C@@H](Cc1ccccc1)C(=O)N[C@@H](CCCCN)C(=O)N[C@@H](CCCCN)C(=O)N[C@H](C(=O)N[C@@H](CCC(=O)O)C(=O)N[C@@H](CCCCN)C(=O)N[C@H](C(N)=O)C(C)C)[C@@H](C)CC [Oct-(SEQ ID NO: 136)-NH2] (Octanoyl-KWKLFKKIEKV-NH2) . Output its Minimal Inhibitory Concentration S only.
OUTPUT: 256

----------
# Tested on: C. albicans
# Format: cell-based
Where a SMILES comes first, the peptide text is derived from it. The star is where a group is joined. Octanoyl = CCCCCCCC(=O)*; Hexanoyl = CCCCCC(=O)*
Recorded Endpoint: Minimal Inhibitory Concentration CA (µg/mL)
State just the number; it will be interpreted in µg/mL.

INPUT: Report Minimal Inhibitory Concentration CA from C. albicans testing of CCCCCC(=O)N[C@@H](CC(C)C)C(=O)N[C@@H](CCCCN)C(=O)N[C@@H](CCCCN)C(=O)N[C@@H](CC(C)C)C(=O)N[C@@H](CC(C)C)C(=O)N[C@@H](CCCCN)C(=O)N[C@@H](CCCCN)C(=O)N[C@@H](CC(C)C)C(=O)N[C@@H](CCCCN)C(=O)N[C@@H](CCCCN)C(=O)N[C@@H](CC(C)C)C(N)=O [Hex-(SEQ ID NO: 110)-NH2] (Hexanoyl-LKKLLKKLKKL-NH2)
OUTPUT: 64

INPUT: Report Minimal Inhibitory Concentration CA from C. albicans testing of CCCCCCCC(=O)N[C@@H](CCCCN)C(=O)N[C@@H](CC(C)C)C(=O)N[C@@H](CC(C)C)C(=O)N[C@@H](CCCCN)C(=O)N[C@@H](CCCCN)C(=O)N[C@@H](CC(C)C)C(=O)N[C@@H](CCCCN)C(=O)N[C@@H](CCCCN)C(=O)N[C@@H](CC(C)C)C(N)=O [Oct-(SEQ ID NO: 108)-NH2] (Octanoyl-KLLKKLKKL-NH2)
OUTPUT: 64

INPUT: Report Minimal Inhibitory Concentration CA from C. albicans testing of CCCCCCCC(=O)N[C@@H](CC(C)C)C(=O)N[C@@H](CCCCN)C(=O)N[C@@H](CCCCN)C(=O)N[C@@H](CC(C)C)C(=O)N[C@@H](CC(C)C)C(=O)N[C@@H](CCCCN)C(=O)N[C@@H](CCC(=O)O)C(=O)N[C@@H](CC(C)C)C(=O)N[C@@H](CCCCN)C(=O)N[C@@H](CCCCN)C(=O)N[C@@H](CC(C)C)C(N)=O [Oct-(SEQ ID NO: 131)-NH2] (Octanoyl-LKKLLKELKKL-NH2)
OUTPUT: 64

INPUT: Report Minimal Inhibitory Concentration CA from C. albicans testing of CCCCCCCC(=O)N[C@H](C(=O)N[C@@H](CCCCN)C(=O)N[C@@H](CCCCN)C(=O)N[C@@H](CC(C)C)C(=O)N[C@@H](CC(C)C)C(=O)N[C@@H](CCCCN)C(=O)N[C@@H](CCCCN)C(=O)N[C@@H](CC(C)C)C(=O)N[C@@H](CCCCN)C(=O)N[C@@H](CCCCN)C(=O)N[C@@H](CC(C)C)C(N)=O)C(C)C [Oct-(SEQ ID NO: 146)-NH2] (Octanoyl-VKKLLKKLKKL-NH2)
OUTPUT: 32

----------
# Assay Info: MTD and LD50, single intravenous administration
# Assay type: in vivo, mice
# Condition Info: mouse, in vivo, iv; CD-1 mice; read-out: MTD of a single intravenous (i.v.) administration
Where no end group is shown, it is not given here.
Recorded Endpoint: MTD (mg/kg)
State just the number; it will be interpreted in mg/kg.

INPUT: // Input: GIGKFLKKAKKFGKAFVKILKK [MSI-344] . Output its MTD only.
OUTPUT: 10

----------
# Tested on: C. albicans
# Type: cell-based
Where a SMILES comes first, the peptide text is derived from it. The star is where a group is joined. Octanoyl = CCCCCCCC(=O)*
Recorded Endpoint: Minimal Inhibitory Concentration CA (µg/mL)
State just the number; it will be interpreted in µg/mL.

INPUT: // Input: CCCCCCCC(=O)N[C@@H](CCCCN)C(=O)N[C@@H](Cc1c[nH]c2ccccc12)C(=O)N[C@@H](CCCCN)C(=O)N[C@@H](CC(C)C)C(=O)N[C@@H](Cc1ccccc1)C(=O)N[C@@H](CCCCN)C(=O)N[C@@H](CCCCN)C(=O)N[C@H](C(=O)N[C@@H](CCC(=O)O)C(=O)N[C@@H](CCCCN)C(=O)N[C@H](C(N)=O)C(C)C)[C@@H](C)CC [Oct-(SEQ ID NO: 136)-NH2] (Octanoyl-KWKLFKKIEKV-NH2) . Output its Minimal Inhibitory Concentration CA only.
OUTPUT: 256

INPUT: // Input: CCCCCCCC(=O)N[C@@H](CCCCN)C(=O)N[C@@H](CCCCN)C(=O)N[C@@H](CC(C)C)C(=O)N[C@@H](CC(C)C)C(=O)N[C@@H](CCCCN)C(=O)N[C@@H](CCCCN)C(=O)N[C@@H](CC(C)C)C(=O)N[C@@H](CCCCN)C(=O)N[C@@H](CCCCN)C(=O)N[C@@H](CC(C)C)C(=O)N[C@@H](CC(C)C)C(=O)N[C@@H](CCCCN)C(=O)N[C@@H](CCCCN)C(=O)N[C@@H](CC(C)C)C(N)=O [Oct-(SEQ ID NO: 139)-NH2] (Octanoyl-KKLLKKLKKLLKKL-NH2) . Output its Minimal Inhibitory Concentration CA only.
OUTPUT: 128

INPUT: // Input: CCCCCCCC(=O)N[C@@H](CC(C)C)C(=O)N[C@@H](CC(C)C)C(=O)N[C@@H](CCCCN)C(=O)N[C@@H](CCCCN)C(=O)N[C@@H](CC(C)C)C(=O)N[C@@H](CCCCN)C(=O)N[C@@H](CCCCN)C(=O)N[C@@H](CC(C)C)C(=O)N[C@@H](CC(C)C)C(=O)N[C@@H](CCCCN)C(=O)N[C@@H](CCCCN)C(=O)N[C@@H](CC(C)C)C(N)=O [Oct-(SEQ ID NO: 113)-NH2] (Octanoyl-LLKKLKKLLKKL-NH2) . Output its Minimal Inhibitory Concentration CA only.
OUTPUT: 128

INPUT: // Input: CCCCCCCC(=O)N[C@@H](CCCCN)C(=O)N[C@@H](CC(C)C)C(=O)N[C@@H](CCCCN)C(=O)N[C@@H](CCCCN)C(=O)N[C@@H](CCCCN)C(=O)N[C@@H](Cc1ccccc1)C(=O)N[C@@H](CC(C)C)C(=O)N[C@@H](CCCCN)C(=O)N[C@@H](CCCCN)C(=O)N[C@@H](CC(C)C)C(N)=O [Oct-(SEQ ID NO: 129)-NH2] (Octanoyl-KLKKKFLKKL-NH2) . Output its Minimal Inhibitory Concentration CA only.
OUTPUT: 128

INPUT: // Input: CCCCCCCC(=O)N[C@@H](C)C(=O)N[C@@H](CCCCN)C(=O)N[C@@H](CCCCN)C(=O)N[C@@H](CC(C)C)C(=O)N[C@@H](CC(C)C)C(=O)N[C@@H](CCCCN)C(=O)N[C@@H](CCCCN)C(=O)N[C@@H](CC(C)C)C(=O)N[C@@H](CCCCN)C(=O)N[C@@H](CCCCN)C(=O)N[C@@H](CC(C)C)C(N)=O [Oct-(SEQ ID NO: 111)-NH2] (Octanoyl-AKKLLKKLKKL-NH2) . Output its Minimal Inhibitory Concentration CA only.
OUTPUT: 32
